Values from patent US9586943B2

- target: TARc hairpin
- protocol-notes: SPR binding specificity relative to control TARc hairpin
- Design: species or system HIV-1
- condition-set: 25° C., pH 7.4
reported-property: Kd(TARc)/Kd(RRE)
Write the value as a bare number.

# structure-string, Kd(TARc)/Kd(RRE)
rows = [
    ("CCc1cc(-c2c(CCN)cc(OC)cc2CCN)cc(CC)c1-c1cc(CCN)c(O)c(CCN)c1", 1.3),
    ("CCc1cc(-c2c(CCN)cc(OC)cc2CCN)ccc1-c1cc(CCN)c(O)c(CCN)c1", 1.6),
    ("COc1cc(CCN)c(-c2ccc(-c3cc(CCN)c(OCc4ccc(C(F)(F)F)cc4)c(CCN)c3)c(OC)c2)c(CCN)c1", 9.6),
    ("CCc1cc(-c2c(CCN)cc(OC)cc2CCN)ccc1-c1cc(CCN)c(OCc2ccccc2)c(CCN)c1", 2.0),
]

Value lookup for Kd(TARc)/Kd(RRE); key = `CCc1cc(-c2c(CCN)cc(OC)cc2CCN)cc(CC)c1-c1cc(CCN)c(OCc2ccccc2)c(CCN)c1` 1.7
